This section presents compounds with their documented EC90 values.
- Test system: HIV (HTLV-IIIB strain)
- Experiment Summary: HIV replication inhibition assay (Test Example 1; MT-4 cells, MTT)
- Format: cell-based
- Condition Summary: Human immunodeficiency virus 1, MT4, 96 h; HIV (HTLV-IIIB strain), MT-4 cells, MTT, four days; read-out: EC90
- Procedure: HIV (HTLV-IIIB strain) persistent infected human T cell strain Molt-4 clone8 was cultured in RPMI-1640 medium supplemented with 10% fetal bovine serum and the supernatant was filtered, then the virus titer was measured and stored at −80° C. Each anti-human immunodeficiency virus active substance was diluted with the above culture medium to the designated concentration, which was dispensed into 96-well microtiter plate by 50 μL. […]
Endpoint Name: EC90 (nM)

[[record]]
compound = "CC(=O)N1CCn2c(C)cc3c(-c4ccc(Cl)cc4)c([C@H](OC(C)(C)C)C(=O)O)c(C)c1c32 [Compound I-025]"
target_desc = "HIV (HTLV-IIIB strain)"
endpoint_name = "EC90"
value_observed = 3.1

[[record]]
compound = "Cc1ccc(-c2c([C@H](OC(C)(C)C)C(=O)O)c(C)c3c4c2cc(C)n4CCN3c2ncc(OCCN3CCOCC3)cn2)cc1 [Compound I-276]"
target_desc = "HIV (HTLV-IIIB strain)"
endpoint_name = "EC90"
value_observed = 2.5

[[record]]
compound = "[2H]C([2H])([2H])Oc1cnc(N2CCn3c(C)cc4c(-c5ccc(C)cc5)c([C@H](OC(C)(C)C)C(=O)O)c(C)c2c43)nc1 [Compound I-266]"
target_desc = "HIV (HTLV-IIIB strain)"
endpoint_name = "EC90"
value_observed = 2.1


====

- Tested on: HIV
- Type: cell-based
- Condition Summary: EC50 in the presence of human serum (25%) versus without human serum, MT-4 cells
Below is a list of entries, each paired with its recorded Potency shift value value.
Endpoint Name: Potency shift value

[[record]]
molecule = "COc1cnc(N2CCn3c(C)cc4c(-c5ccc(F)cc5)c([C@H](OC(C)(C)C)C(=O)O)c(C)c2c43)nc1"
endpoint_name = "Potency shift value"
value_observed = 15

[[record]]
molecule = "Cc1c([C@H](OC(C)(C)C)C(=O)O)c(-c2ccc(Cl)cc2)c2cc(C)n3c2c1N(c1ncc(-c2ccc(F)cc2)cn1)CC3"
endpoint_name = "Potency shift value"
value_observed = 16

[[record]]
molecule = "CCO[C@H](C(=O)O)c1c(C)c2c3c(cc(C)n3CCN2c2ncc(OC)cn2)c1-c1ccc(Cl)cc1"
endpoint_name = "Potency shift value"
value_observed = 2.1

[[record]]
molecule = "Cc1c([C@H](OC(C)(C)C)C(=O)O)c(-c2ccc(Cl)cc2)c2cc(C)n3c2c1N(c1ncccn1)CC3"
endpoint_name = "Potency shift value"
value_observed = 22

[[record]]
molecule = "Cc1c([C@H](OC(C)(C)C)C(=O)O)c(-c2ccc(Cl)cc2)c2cc(C)n3c2c1N(c1ncc(O)cn1)CC3"
endpoint_name = "Potency shift value"
value_observed = 7.6

[[record]]
molecule = "Cc1ccc(-c2c([C@H](OC(C)(C)C)C(=O)O)c(C)c3c4c2cc(C)n4CCN3)cc1"
endpoint_name = "Potency shift value"
value_observed = 11

[[record]]
molecule = "Cc1c([C@H](OC(C)(C)C)C(=O)O)c(-c2ccc(Cl)cc2)c2cc(C)n3c2c1N(C(=O)C(=O)N(C)C)[C@H](C)C3"
endpoint_name = "Potency shift value"
value_observed = 30

[[record]]
molecule = "Cc1ccc(-c2c([C@H](OC(C)(C)C)C(=O)O)c(C)c3c4c2cc(C)n4CCN3CCN2CCC(F)(F)C2)cc1"
endpoint_name = "Potency shift value"
value_observed = 7.5

[[record]]
molecule = "Cc1ccc(-c2c([C@H](OC(C)(C)C)C(=O)O)c(C)c3c4c2cc(C)n4CCN3CCF)cc1"
endpoint_name = "Potency shift value"
value_observed = 24

[[record]]
molecule = "Cc1ccc(-c2c([C@H](OC(C)(C)C)C(=O)O)c(C)c3c4c2cc(C)n4CCN3c2nc3c(s2)CN(C)CC3)cc1"
endpoint_name = "Potency shift value"
value_observed = 4.8

[[record]]
molecule = "CCCc1cc2c(-c3ccc(C)cc3)c([C@H](OC(C)(C)C)C(=O)O)c(C)c3c2n1CCN3C"
endpoint_name = "Potency shift value"
value_observed = 49

[[record]]
molecule = "Cc1c([C@H](OC(C)(C)C)C(=O)O)c(-c2ccc(Cl)cc2)c2cc(C)n3c2c1OCCC3"
endpoint_name = "Potency shift value"
value_observed = 11

[[record]]
molecule = "Cc1c([C@H](OC(C)(C)C)C(=O)O)c(-c2ccc(Cl)cc2)c2cc(C)n3c2c1N(Cc1cnccn1)CC3"
endpoint_name = "Potency shift value"
value_observed = 6.9

[[record]]
molecule = "Cc1ccc(-c2c([C@H](OC(C)(C)C)C(=O)O)c(C)c3c4c2cc(C)n4CCN3c2ncc(Oc3ccnc4ccccc34)cn2)cc1"
endpoint_name = "Potency shift value"
value_observed = 18

[[record]]
molecule = "Cc1ccc(-c2c([C@H](OC(C)(C)C)C(=O)O)c(C)c3c4c2cc(C)n4CCN3c2ncc(CN3CCCC3)cn2)cc1"
endpoint_name = "Potency shift value"
value_observed = 7.4

[[record]]
molecule = "Cc1c([C@H](OC(C)(C)C)C(=O)O)c(-c2c(F)cc(F)cc2F)c2cc(C)n3c2c1N(C)CC3"
endpoint_name = "Potency shift value"
value_observed = 7.4

[[record]]
molecule = "Cc1ccc(-c2c([C@H](OC(C)(C)C)C(=O)O)c(C)c3c4c2cc(C)n4CCN3CCNC2CC2)cc1"
endpoint_name = "Potency shift value"
value_observed = 2.5

[[record]]
molecule = "Cc1ccc(-c2c([C@H](OC(C)(C)C)C(=O)O)c(C)c3c4c2cc(C)n4CCN3c2ncc(OC3COC3)cn2)cc1"
endpoint_name = "Potency shift value"
value_observed = 21

[[record]]
molecule = "Cc1ccc(-c2c([C@H](OC(C)(C)C)C(=O)O)c(C)c3c4c2cc(C)n4CCN3c2ncc(OCCO)cn2)cc1"
endpoint_name = "Potency shift value"
value_observed = 9.5

[[record]]
molecule = "Cc1ccc(-c2c([C@H](OC(C)(C)C)C(=O)O)c(Cl)c3c4c2cc(C)n4CCN3c2ncc(OCCN(C)C)cn2)cc1"
endpoint_name = "Potency shift value"
value_observed = 4.3

[[record]]
molecule = "CCOc1cnc(N2CCn3c(C)cc4c(-c5ccc(C)cc5)c([C@H](OC(C)(C)C)C(=O)O)c(C)c2c43)nc1"
endpoint_name = "Potency shift value"
value_observed = 32

[[record]]
molecule = "Cc1c([C@H](OC(C)(C)C)C(=O)O)c(-c2ccc(Cl)cc2)c2cc(C)n3c2c1OC(C)C3 (stereo partly drawn) [Compound I-196]"
endpoint_name = "Potency shift value"
value_observed = 11

[[record]]
molecule = "CC(=O)N1CCn2c(C)cc3c(-c4ccc(Cl)cc4)c([C@H](OC(C)(C)C)C(=O)O)c(C)c1c32"
endpoint_name = "Potency shift value"
value_observed = 11

[[record]]
molecule = "Cc1ccc(-c2c([C@H](OC(C)(C)C)C(=O)O)c(C)c3c4c2cc(C)n4CCN3c2ncc(OCCCN(C)C)cn2)cc1"
endpoint_name = "Potency shift value"
value_observed = 4

[[record]]
molecule = "Cc1ccc(-c2c([C@H](OC(C)(C)C)C(=O)O)c(C)c3c4c2cc(C)n4CCN3c2ccc(N3CCCC3=O)cn2)cc1"
endpoint_name = "Potency shift value"
value_observed = 11

[[record]]
molecule = "Cc1ccc(-c2c([C@H](OC(C)(C)C)C(=O)O)c(Cl)c3c4c2cc(C)n4CCN3CCN(C)C)cc1"
endpoint_name = "Potency shift value"
value_observed = 2.5

[[record]]
molecule = "Cc1ccc(-c2c([C@H](OC(C)(C)C)C(=O)O)c(C)c3c4c2cc(CO)n4CCN3C)cc1"
endpoint_name = "Potency shift value"
value_observed = 4.5


====

- System: HIV
- Assay type: cell-based
- Condition Summary: EC50 in the presence of human serum (25%) versus without human serum, MT-4 cells
Recorded Potency shift value values for a group of compounds are listed next.
Endpoint Name: Potency shift value

[[record]]
compound = "Cc1c([C@H](OC(C)(C)C)C(=O)O)c(-c2ccc(Cl)cc2)c2cc(C)n3c2c1N(C(N)=S)CC3"
value_observed = 3.5

[[record]]
compound = "Cc1ccc(-c2c([C@H](OC(C)(C)C)C(=O)O)c(C)c3c4c2cc(C)n4CCN3c2ncc(OC3CCN(C)CC3)cn2)cc1"
value_observed = 3.6

[[record]]
compound = "Cc1ccc(-c2c([C@H](OC(C)(C)C)C(=O)O)c(C)c3c4c2cc(C)n4CCN3CCN2CCCC2)cc1"
value_observed = 2.7

[[record]]
compound = "Cc1ccc(-c2c([C@H](OC(C)(C)C)C(=O)O)c(Cl)c3c4c2cc(C)n4CCN3C)cc1"
value_observed = 11

[[record]]
compound = "Cc1ccc(-c2c([C@H](OC(C)(C)C)C(=O)O)c(C)c3c4c2cc(C)n4CCN3c2cccc(CN3CCOCC3)n2)cc1"
value_observed = 9.1

[[record]]
compound = "Cc1c([C@H](OC(C)(C)C)C(=O)O)c(-c2ccc(Cl)cc2)c2cc(C)n3c2c1N(C)C(c1ccccc1)C3 (stereo partly shown)"
value_observed = 6.4

[[record]]
compound = "COc1cnc(N2CCn3c(C)cc4c(-c5ccc(C)cc5)c([C@H](OC(C)(C)C)C(=O)O)c(C)c2c43)cn1"
value_observed = 18

[[record]]
compound = "Cc1ccc(-c2c([C@H](OC(C)(C)C)C(=O)O)c(C)c3c4c2cc(C)n4CCN3c2ncc(CCN3CCOCC3)cn2)cc1"
value_observed = 13

[[record]]
compound = "Cc1ccc(-c2c([C@H](OC(C)(C)C)C(=O)O)c(C)c3c4c2cc(C)n4CCN3CCOC(F)F)cc1"
value_observed = 11

[[record]]
compound = "Cc1c([C@H](OC(C)(C)C)C(=O)O)c(-c2ccc(Cl)cc2)c2cc(C)n3c2c1N(S(C)(=O)=O)CC3"
value_observed = 16

[[record]]
compound = "Cc1c([C@H](OC(C)(C)C)C(=O)O)c(-c2ccc(Cl)cc2)c2cc(C)n3c2c1N(c1ncc(N2CCOCC2)cn1)CC3"
value_observed = 23

[[record]]
compound = "Cc1c([C@H](OC(C)(C)C)C(=O)O)c(-c2ccc(Cl)cc2)c2cc(C)n3c2c1N1C(=O)OCC[C@@H]1C3"
value_observed = 4.1

[[record]]
compound = "Cc1c([C@H](OC(C)(C)C)C(=O)O)c(-c2ccc(Cl)cc2)c2cc(C)n3c2c1N(c1nccs1)CC3"
value_observed = 8.3

